target desc: Rn_DYRK1A (Rattus norvegicus)
Construct: host or cells: bacteria
method summary: ADP-Glo kinase assay, primary screen
Format: biochemical
cond: 10 µM, n=2; read-out: % of residual activity Rn_DYRK1A
Label class 1 when remaining activity at 10 µM is strictly below 60%; otherwise label class 0.

>>> df
                                    molecule  discrete_label
 0  O=[N+]([O-])c1cc(O)ccc1-n1cc(COc2cccc3cnc(Nc4cccc(Cl)c4)nc23)nn1 [12c]         class 1
 1  N[C@H]1CC[C@@H](n2cc(COc3cccc4cnc(Nc5cccc(Cl)c5)nc34)nn2)CC1 [16a]         class 1
 2  O=[N+]([O-])c1cc(Br)ccc1-n1cc(COc2cccc3cnc(Nc4cccc(Cl)c4)nc23)nn1 [12d]         class 0
 3  CC(C)(C)OC(=O)N[C@H]1CC[C@@H](n2cc(COc3cccc4cnc(Nc5cc(Cl)cc(Cl)c5)nc34)nn2)CC1 [15b]         class 0
 4  CC(C)(C)OC(=O)N[C@H]1CC[C@H](n2cc(COc3cccc4cnc(Nc5cccc(Cl)c5)nc34)nn2)CC1 [18a]         class 0
 5  N[C@H]1CC[C@H](n2cc(COc3cccc4cnc(Nc5cccc(Cl)c5)nc34)nn2)CC1 [19a]         class 0
 6  O=C(O)c1ccc(-n2cc(COc3cccc4cnc(Nc5cccc(Cl)c5)nc34)nn2)c([N+](=O)[O-])c1 [12g]         class 1
 7  CC(C)(C)OC(=O)N[C@H]1CC[C@@H](n2cc(COc3cccc4cnc(Nc5cccc(Cl)c5)nc34)nn2)CC1 [15a]         class 0
 8  O=[N+]([O-])c1cc(CO)ccc1-n1cc(COc2cccc3cnc(Nc4cccc(Cl)c4)nc23)nn1 [12e]         class 1
 9  N[C@H]1CC[C@@H](n2cc(COc3cccc4cnc(Nc5cc(Cl)cc(Cl)c5)nc34)nn2)CC1 [16b]         class 1
10  N[C@H]1CC[C@H](n2cc(COc3cccc4cnc(Nc5cc(Cl)cc(Cl)c5)nc34)nn2)CC1 [19b]         class 0

Measured values drawn from paper PMC9571063 for this set.
